# System: SK-OV-3 ovarian
# Protocol details: NCI tumour cell line growth inhibition, 48 h
Parameter measured: TGI

                                   compound   assayed_target  readout_value
0                    N#Cc1nc(-c2ccccn2)oc1N  SK-OV-3 ovarian       > 100 µM
1  CC(=O)[CH-]C(=O)c1ccccc1.CC(=O)[CH-]C(=O)c1ccccc1.Cl.[O-]c1ccccn1.[O-]c1ccccn1.[Ti+4]  SK-OV-3 ovarian       > 100 µM
2  C[CH2][Ge]([CH2]C)([CH2]C)[O]C(=O)CCC(=O)[O][Ge]([CH2]C)([CH2]C)[CH2]C  SK-OV-3 ovarian       > 100 µM
3        CC(=O)ON1C(=O)c2cccc3cccc(c23)C1=O  SK-OV-3 ovarian       > 100 µM

Below is a list of compounds. For each, state its recorded TGI.
1. CN(C)CC1CCCCCCCCCC(CN(C)C)C1=O (centres undefined)
2. CN[C@@H](C)[C@H](N)c1ccccc1
3. Oc1ccc(CCNCc2cc3c(cc2Br)OCO3)cc1
4. Cc1cc(=O)[nH]c(NNC(C#N)c2c(O)ccc3ccccc23)n1 (centres undefined)

Output line:
> 45.6 µM
> 100 µM
> 100 µM
52.6 µM

====

Assignment: determine reported log10(TGI) for the given molecules.
# Test system: SK-MEL-28 melanoma
# Protocol details: NCI tumour cell line growth inhibition, 48 h
A difference of one corresponds to tenfold TGI; all values are log10 with TGI in µM.

>>> df
                                   molecule  readout_value
0     C/C(=N\NC(=S)N1CCCCCCCCCCCC1)c1ccccn1           0.31
1  CCCCNC(=O)Oc1ccc(/C(=C(/C)Cc2ccc(OC)cc2)c2ccc(OCCN3CCCC3)cc2)cc1           0.55

Below is a list of molecules. For each, state its recorded log10(TGI).
1. CC(C)(C)OC(=O)C1=C2C=C(O)C=CC2(C)N(Cc2ccccc2)C1=N (configuration not stated)
2. C=C1C(=O)OC2CC(=C)C3CC=C(C)C3CC12 (configuration not stated)
3. N#Cc1c(Cl)nc2ccccc2c1N=[N+]=[N-]
4. Cc1[nH]c(-c2nc3ccccc3[nH]2)c(C)c1C(=O)NC(C)C1CCCCC1 (configuration not stated)
5. C[C@]12CC[C@H]3[C@@H](C[C@@H]4SC(Nc5ccccc5)=N[C@@]45CC(O)CC[C@]35C)[C@@H]1CCC2O (some centres not stated)

Output line:
1. 1.39
2. 1.89
3. 0.96
4. 1.37
5. 0.60

====

# System: M14 melanoma
# Protocol details: NCI tumour cell line growth inhibition, 48 h
Assignment: determine reported TGI for the given compounds.

Sample answers from the record:
>>> df
                                   compound  readout_value
0  COC(=O)[C@]1(c2cc3ccccc3[nH]2)CC2CN(CC(=O)N(C)OC)C1CC2(OC)OC (stereo partly specified)       > 100 µM
1                Cc1ccc(NC(=S)SCCC(=O)O)cc1       > 100 µM
2                CCOc1ccc(N=NS(=O)(=O)O)cc1       > 100 µM
3  CSc1nc(NC2OC(COC(C)=O)C(OC(C)=O)C(OC(C)=O)C2OC(C)=O)c(-c2csc(N)n2)c(=O)n1C (stereo unspecified)       > 100 µM

Below is a list of compounds. For each, state its recorded TGI.
1. CCOC(=O)[C@H]1Nc2ccc([N+](=O)[O-])cc2C2c3ccccc3CC21 (stereo partly specified)
2. COC(=O)C1C=NNC1C(=O)OC (stereo unspecified)

Output line:
34.3 µM
> 100 µM
